- procedure-text: Ex vivo biodistribution in PC-3 tumor-bearing mice
- experimental-parameters: mouse, spleen, 100 ug, Uptake in spleen, 1 h blocked (co-injected with 100 µg [D-Phe6,Leu-NHEt13,des-Met14]Bombesin(6-14))
Numbered stars: 1 amine (or outer) side, 2 acyl side, 3 side chain; on linkers, the order of the positions; unused ones are H or OH. Square brackets hold non-standard residues; d marks the D form. Peptide text beside a SMILES is read from it. * marks the point of attachment. DOTA = O=C(O)CN1CCN(CC(=O)O)CCN(CC(=O)*)CCN(CC(=O)O)CC1; NMeH = CN[C@@H](Cc1c[nH]cn1)C(=O)O; X1 = O=C(CN1CCC(N[*:1])CC1)[*:2]; Tle = CC(C)(C)[C@H](N)C(=O)O; Thz = O=C(O)[C@@H]1CSCN1
readout-kind: tissue uptake at 1 h (%ID/g)
Report the figure in %ID/g without appending any unit label.

These recorded examples may help you get a feel for the data.
• CC(C)C[C@H](NC(=O)[C@H](Cc1cnc[nH]1)N(C)C(=O)CNC(=O)[C@@H](NC(=O)[C@H](C)NC(=O)[C@H](Cc1c[nH]c2ccccc12)NC(=O)[C@H](CCC(N)=O)NC(=O)[C@@H](Cc1ccccc1)NC(=O)CN1CCC(NC(=O)CN2CCN(CC(=O)O)CCN(CC(=O)O)CCN(CC(=O)O)CC2)CC1)C(C)(C)C)C(=O)N1CSC[C@H]1C(N)=O [[^177Lu]Lu-LW01110, metal not drawn] = 0.21
• CC(C)C[C@H](NC(=O)[C@H](Cc1cnc[nH]1)N(C)C(=O)CNC(=O)[C@@H](NC(=O)[C@H](C)NC(=O)[C@H](Cc1c[nH]c2ccccc12)NC(=O)[C@H](Cc1c[nH]cn1)NC(=O)[C@@H](Cc1ccccc1)NC(=O)CN1CCC(NC(=O)CN2CCN(CC(=O)O)CCN(CC(=O)O)CCN(CC(=O)O)CC2)CC1)C(C)(C)C)C(=O)N1CSC[C@H]1C(N)=O [[^177Lu]Lu-LW01142, metal not drawn] ({DOTA}-[X1][dF]HWA[Tle]G[NMeH]L[Thz]-NH2) = 0.4

Noted for CC(C)C[C@@H](CN1CSC[C@H]1C(N)=O)NC(=O)[C@H](Cc1cnc[nH]1)NC(=O)CN(C)C(=O)[C@@H](NC(=O)[C@H](C)NC(=O)[C@H](Cc1c[nH]c2ccccc12)NC(=O)[C@H](CCC(N)=O)NC(=O)[C@@H](Cc1ccccc1)NC(=O)CN1CCC(NC(=O)CN2CCN(CC(=O)O)CCN(CC(=O)O)CCN(CC(=O)O)CC2)CC1)C(C)C [[^177Lu]Lu-TacsBOMB5, metal not drawn] : its tissue uptake at 1 h reads 0.15
